target: hERG channel (Homo sapiens, UniProt Q12809); assay: hERG electrophysiology, automated whole-cell patch clamp (Patchliner)
Sequence (Q12809 whole entry): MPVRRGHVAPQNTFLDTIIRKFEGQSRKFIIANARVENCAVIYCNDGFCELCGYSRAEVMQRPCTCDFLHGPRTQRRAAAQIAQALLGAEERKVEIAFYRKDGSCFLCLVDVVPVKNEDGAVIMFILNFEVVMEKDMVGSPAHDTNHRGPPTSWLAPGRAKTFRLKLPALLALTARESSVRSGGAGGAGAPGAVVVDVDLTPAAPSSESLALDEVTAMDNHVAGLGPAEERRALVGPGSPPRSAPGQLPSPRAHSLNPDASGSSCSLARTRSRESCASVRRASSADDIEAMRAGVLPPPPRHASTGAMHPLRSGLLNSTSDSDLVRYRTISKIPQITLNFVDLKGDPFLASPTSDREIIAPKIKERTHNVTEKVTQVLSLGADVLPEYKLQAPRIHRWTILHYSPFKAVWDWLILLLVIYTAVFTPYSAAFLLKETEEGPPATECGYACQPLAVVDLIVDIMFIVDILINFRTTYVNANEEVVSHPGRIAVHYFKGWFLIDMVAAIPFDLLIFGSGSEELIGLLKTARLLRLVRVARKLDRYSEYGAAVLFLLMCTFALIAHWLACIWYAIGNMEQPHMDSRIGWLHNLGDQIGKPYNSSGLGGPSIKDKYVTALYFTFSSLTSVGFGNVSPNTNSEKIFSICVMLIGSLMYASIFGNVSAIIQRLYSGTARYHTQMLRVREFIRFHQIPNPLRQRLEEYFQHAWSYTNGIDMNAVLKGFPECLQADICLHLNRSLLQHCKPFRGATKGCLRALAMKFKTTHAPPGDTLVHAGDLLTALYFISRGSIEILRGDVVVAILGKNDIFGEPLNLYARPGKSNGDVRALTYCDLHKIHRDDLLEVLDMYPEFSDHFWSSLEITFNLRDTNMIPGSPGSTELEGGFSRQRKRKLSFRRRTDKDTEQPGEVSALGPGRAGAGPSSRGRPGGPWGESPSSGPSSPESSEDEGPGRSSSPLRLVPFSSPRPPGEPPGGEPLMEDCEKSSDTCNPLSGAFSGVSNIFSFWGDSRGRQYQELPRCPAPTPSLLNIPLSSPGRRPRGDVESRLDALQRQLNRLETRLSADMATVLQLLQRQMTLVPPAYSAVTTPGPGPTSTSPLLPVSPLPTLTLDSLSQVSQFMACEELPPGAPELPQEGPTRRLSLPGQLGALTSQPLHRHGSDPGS
metric: IC50

Any idea what IC50 was measured for CN1CCC(C(N)c2cc(Cl)c(Cl)cc2O)CC1 (stereo not drawn) ?
< 30 µM

Any idea what IC50 was measured for N[C@@H](c1cc(Cl)c(C2CC2)cc1O)C1CCN(C(=O)[C@H](O)CO)CC1 ?
> 30 µM

Any idea what IC50 was measured for O=C([C@@H]1CCNC1)N1CCC([C@@H](O)c2cc(Cl)c(Cl)cc2O)CC1 (single isomer, unassigned) ?
> 30 µM

Any idea what IC50 was measured for C[C@H](N)C(=O)N1CCC([C@H](N)c2cc(Cl)c(Cl)cc2O)CC1 (single isomer, unassigned) ?
> 30 µM

Any idea what IC50 was measured for Nc1cc(C(=O)N2CCC([C@@H](N)c3cc(Cl)c(Cl)cc3O)CC2)ccn1 ?
> 30 µM

Any idea what IC50 was measured for N[C@@H](c1cc(Cl)c(Cl)cc1O)C1CCN(C(=O)C2CC(O)(CO)C2)CC1 (stereo partly drawn) ?
> 30 µM

Any idea what IC50 was measured for Cc1cc(O)c([C@H](N)C2CCN(C(=O)c3c[nH]c(=O)c(C#N)c3)CC2)cc1Cl ?
> 30 µM

Any idea what IC50 was measured for C[C@@H](N)C(=O)N1CCC(C(N)c2cc(Cl)c(Cl)cc2O)CC1 (stereo partly drawn) ?
> 30 µM

Any idea what IC50 was measured for N[C@@H](c1cc(Cl)c(Cl)cc1O)C1CCN(C(=O)NCCO)CC1 ?
> 30 µM

Any idea what IC50 was measured for N[C@@H](c1cc(Cl)c(Cl)cc1O)C1CCN(C(=O)N2CC(O)C2)CC1 ?
> 30 µM

Any idea what IC50 was measured for C[C@](O)(CO)C(=O)N1CCC([C@@H](N)c2cc(Cl)c(Cl)cc2O)CC1 (single isomer, unassigned; isomer 2) ?
> 30 µM

Any idea what IC50 was measured for O=C([C@@H]1CCNC1)N1CCC(Cc2cc(Cl)c(Cl)cc2O)CC1 ?
< 30 µM

Any idea what IC50 was measured for N[C@@H](c1cc(Cl)c(Cl)cc1O)[C@@H]1CCNC1 (single isomer, unassigned; diastereoisomer 2) ?
> 30 µM

Any idea what IC50 was measured for N[C@@H](c1cc(Cl)c(Cl)cc1O)C1CCN(C(=O)[C@@H]2CNC(=O)C2)CC1 [Compound 224, trifluoroacetic acid] ?
> 30 µM

Any idea what IC50 was measured for NC(c1cc(Cl)c(Cl)cc1O)C1CCN(C(=O)C2COC2)CC1 (stereo not drawn) ?
< 30 µM

###

target: Kv1.3 potassium channel (Homo sapiens); assay: Kv1.3 potassium channel blocker activity, automated whole-cell patch clamp (Patchliner); conditions: CHO-K1 cells stably expressing Kv1.3; whole cell current inhibition; read-out: Kv1.3_IC50
Sequence (P22001 whole entry): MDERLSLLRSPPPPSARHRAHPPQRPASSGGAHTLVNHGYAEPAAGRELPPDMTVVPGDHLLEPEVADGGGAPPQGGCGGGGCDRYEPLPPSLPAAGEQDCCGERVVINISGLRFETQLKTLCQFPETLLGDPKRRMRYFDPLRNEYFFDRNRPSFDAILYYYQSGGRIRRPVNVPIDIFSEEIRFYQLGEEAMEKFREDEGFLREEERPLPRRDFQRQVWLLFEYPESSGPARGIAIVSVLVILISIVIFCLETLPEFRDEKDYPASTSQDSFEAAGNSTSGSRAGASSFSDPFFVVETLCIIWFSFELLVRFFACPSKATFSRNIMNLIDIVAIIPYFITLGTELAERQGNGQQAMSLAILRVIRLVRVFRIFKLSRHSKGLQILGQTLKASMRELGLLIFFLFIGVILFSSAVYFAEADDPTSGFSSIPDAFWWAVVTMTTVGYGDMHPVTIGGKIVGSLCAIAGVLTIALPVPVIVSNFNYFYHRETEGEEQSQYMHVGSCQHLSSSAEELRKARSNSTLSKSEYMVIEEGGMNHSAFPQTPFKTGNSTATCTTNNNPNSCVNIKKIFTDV
Would you mind telling me the reported IC50 of each entry?

Find the measured IC50: item COCCS(=O)(=O)N1CCC([C@@H](N)c2cc(Cl)c(Cl)cc2O)CC1 , target or system Kv1.3 potassium channel (Homo sapiens).
< 10 µM

Find the measured IC50: item CO[C@H](CO)C(=O)N1CCC([C@@H](N)c2cc(Cl)c(Cl)cc2O)CC1 , target or system Kv1.3 potassium channel (Homo sapiens).
< 0.5 µM

Find the measured IC50: item N[C@H](c1cc(Cl)c(Cl)cc1O)[C@H]1CCN(C(=O)[C@H](O)CO)C1 (single isomer, unassigned; isomer 1) , target or system Kv1.3 potassium channel (Homo sapiens).
< 10 µM

Find the measured IC50: item NC(c1cc(Cl)c(Cl)cc1O)C1CCN(CC(F)F)CC1 (centres unmarked) , target or system Kv1.3 potassium channel (Homo sapiens).
< 10 µM

Find the measured IC50: item CC(O)(c1cc(Cl)c(Cl)cc1O)C1CCNCC1 (centres unmarked) , target or system Kv1.3 potassium channel (Homo sapiens).
< 10 µM

Find the measured IC50: item Oc1ccc2ccccc2c1C(O)C1CCNCC1 (centres unmarked) , target or system Kv1.3 potassium channel (Homo sapiens).
< 10 µM

Find the measured IC50: item Cc1cc(O)c([C@H](N)C2CCN(C(=O)c3c[nH]c(=O)c4ccccc34)CC2)cc1Cl , target or system Kv1.3 potassium channel (Homo sapiens).
< 0.5 µM

Find the measured IC50: item N[C@@H](c1cc(Cl)c(Cl)cc1O)C1CCN(C(=O)c2c[nH]c(=O)c(Cl)c2)CC1 , target or system Kv1.3 potassium channel (Homo sapiens).
< 0.5 µM

Find the measured IC50: item Cc1[nH]c(=O)ccc1C(=O)N1CCC([C@@H](N)c2cc(Cl)c(Cl)cc2O)CC1 , target or system Kv1.3 potassium channel (Homo sapiens).
< 10 µM

Find the measured IC50: item N[C@@H](c1cc(Cl)c(Cl)cc1O)C1CCN(C(=O)c2c[nH]c(=O)[nH]c2=O)CC1 , target or system Kv1.3 potassium channel (Homo sapiens).
< 0.5 µM

Find the measured IC50: item C[C@]1(C(=O)N2CCC([C@@H](N)c3cc(Cl)c(Cl)cc3O)CC2)CCCN1 , target or system Kv1.3 potassium channel (Homo sapiens).
< 0.5 µM

Provenance of the data: patent US20230023559A1
